FYI, the data here is from PubChem BioAssay (NCI).

- ASSAY DETAILS: NCI Yeast Anticancer Drug Screen. Data for the sgs1 mgt1 strain (AID 161);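 also: 0% = growth of cultures given vehicle only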
- MEASUREMENT CONTEXT: S. cerevisiae sgs1 mgt1 strain, at 50.0 µM, active compounds read high
Compounds without any hit were thinned out: in the full panel of roughly 79,000, 15% have a hit.
READOUT KIND: growth inhibition (%)

Cc1cc2c(=O)c3ccccc3[nH]c2c(C(N)=O)c1C
1.75
ClCc1c(-c2ccccc2)nn(-c2ccccc2)c1CCl
38.5
CCOC(=O)/C(=N\O)C(C)(C)c1ccnc2ccccc12
-10.9
NCC(=O)NCCC(=O)O
1.75
Cc1ccc(S(=O)(=O)NC(CCC(=O)NN)C(=O)NN)cc1 (centres undefined)
-15.2
COC(=O)[C@H]1[C@H]2C[C@@H]3c4[nH]c5ccccc5c4CCN3C[C@H]2C[C@@H](OC(=O)c2cc(OC)c(OC)c(OC)c2)[C@@H]1OC
17.1
CCc1ccccc1OCC(O)CO (centres undefined)
-6.2
Nc1nc(-c2ccccc2)nc(-c2ccccc2)n1
-8.4
CC[Si](/C=C(/C)C(C)(C)C)(CC)CC
-7.05
CC1c2ccccc2-c2ccccc2N1C(=O)c1cccc(C(=O)N2c3ccccc3-c3ccccc3C2C)n1 (centres undefined)
-6.75
Cc1ccc2nc(NS(=O)(=O)c3cc(C)c(Cl)cc3S)[nH]c2c1
9.1
CCCCCCCCCCCCCCCCCC(=O)c1ccc(OC)c(OC)c1
-31.1
COc1ccc2ccc3nonc3c2c1
9
Cc1c2c([nH]c(=O)c1C)C=CC(Br)C2Br (centres undefined)
1.5
Cc1ccc(S(=O)(=O)n2nc(C3OC(CO)C(O)C3O)c(O)c2C(N)=O)cc1 (centres undefined)
-14.8
BrCCCCCCCCCBr
1.05
O=C(c1c(F)c(F)c(F)c(F)c1F)n1c(=O)[nH]c2ccccc21
-10.2
O=c1[nH]cc(COCCO)c(=O)[nH]1
-19.4
C1CCN(/N=N/c2nn[nH]n2)CC1
-2.8
